The reported numbers originate from patent US9676782B2.

molecules and their reported IC50
biological target: rat mGlu3 (Rattus norvegicus (Rat), UniProt P31422); assay: mGlu3 Ca2+ flux assay; format: cell-based; details: NAM potency, decrease of glutamate EC80 response; >30,000 = no measurable activity; >10,000 = no plateau; read-out: rat mGlu3 IC50
Sequence (P31422 23-879): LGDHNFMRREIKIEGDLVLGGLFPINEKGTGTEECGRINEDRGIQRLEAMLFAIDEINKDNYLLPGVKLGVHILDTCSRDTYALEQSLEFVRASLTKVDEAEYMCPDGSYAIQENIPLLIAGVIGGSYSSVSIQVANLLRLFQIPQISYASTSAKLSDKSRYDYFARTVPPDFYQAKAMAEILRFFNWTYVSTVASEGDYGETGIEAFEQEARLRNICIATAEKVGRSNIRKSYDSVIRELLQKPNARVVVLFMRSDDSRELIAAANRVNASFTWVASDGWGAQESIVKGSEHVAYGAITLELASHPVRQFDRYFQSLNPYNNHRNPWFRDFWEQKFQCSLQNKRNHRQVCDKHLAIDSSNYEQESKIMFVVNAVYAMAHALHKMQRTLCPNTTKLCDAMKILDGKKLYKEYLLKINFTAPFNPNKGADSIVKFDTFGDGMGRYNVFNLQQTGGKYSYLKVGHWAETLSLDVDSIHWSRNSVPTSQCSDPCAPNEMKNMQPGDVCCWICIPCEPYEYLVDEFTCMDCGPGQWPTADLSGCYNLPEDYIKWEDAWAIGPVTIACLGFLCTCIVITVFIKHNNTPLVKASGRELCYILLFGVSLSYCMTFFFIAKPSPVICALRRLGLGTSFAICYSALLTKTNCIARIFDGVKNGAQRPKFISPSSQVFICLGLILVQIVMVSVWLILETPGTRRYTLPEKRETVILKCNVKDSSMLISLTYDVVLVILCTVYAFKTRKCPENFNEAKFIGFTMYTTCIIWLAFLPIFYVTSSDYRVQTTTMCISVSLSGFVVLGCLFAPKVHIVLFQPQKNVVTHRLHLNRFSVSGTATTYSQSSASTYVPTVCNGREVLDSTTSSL
readout: IC50 (µM)

smiles_str	observed_value
COc1ccc(N(C)Cc2cc3n(n2)CCN(c2c(F)cc(Cl)cc2F)C3=O)cc1	1.86
O=C1c2cc(CNc3ccc(OC(F)F)cc3F)nn2CCN1c1ccc(Cl)cn1	0.93
C[C@@H]1CN(c2ccc(F)cc2)C(=O)c2cc(CNc3cccc(F)c3F)nn21	1.23

###

molecular target: rat mGlu5 (Rattus norvegicus (Rat), UniProt P31424); assay: mGlu5 Ca2+ flux assay; format: cell-based; details: read-out: rat mGlu5 EC50 or IC50
Sequence (P31424 21-1203): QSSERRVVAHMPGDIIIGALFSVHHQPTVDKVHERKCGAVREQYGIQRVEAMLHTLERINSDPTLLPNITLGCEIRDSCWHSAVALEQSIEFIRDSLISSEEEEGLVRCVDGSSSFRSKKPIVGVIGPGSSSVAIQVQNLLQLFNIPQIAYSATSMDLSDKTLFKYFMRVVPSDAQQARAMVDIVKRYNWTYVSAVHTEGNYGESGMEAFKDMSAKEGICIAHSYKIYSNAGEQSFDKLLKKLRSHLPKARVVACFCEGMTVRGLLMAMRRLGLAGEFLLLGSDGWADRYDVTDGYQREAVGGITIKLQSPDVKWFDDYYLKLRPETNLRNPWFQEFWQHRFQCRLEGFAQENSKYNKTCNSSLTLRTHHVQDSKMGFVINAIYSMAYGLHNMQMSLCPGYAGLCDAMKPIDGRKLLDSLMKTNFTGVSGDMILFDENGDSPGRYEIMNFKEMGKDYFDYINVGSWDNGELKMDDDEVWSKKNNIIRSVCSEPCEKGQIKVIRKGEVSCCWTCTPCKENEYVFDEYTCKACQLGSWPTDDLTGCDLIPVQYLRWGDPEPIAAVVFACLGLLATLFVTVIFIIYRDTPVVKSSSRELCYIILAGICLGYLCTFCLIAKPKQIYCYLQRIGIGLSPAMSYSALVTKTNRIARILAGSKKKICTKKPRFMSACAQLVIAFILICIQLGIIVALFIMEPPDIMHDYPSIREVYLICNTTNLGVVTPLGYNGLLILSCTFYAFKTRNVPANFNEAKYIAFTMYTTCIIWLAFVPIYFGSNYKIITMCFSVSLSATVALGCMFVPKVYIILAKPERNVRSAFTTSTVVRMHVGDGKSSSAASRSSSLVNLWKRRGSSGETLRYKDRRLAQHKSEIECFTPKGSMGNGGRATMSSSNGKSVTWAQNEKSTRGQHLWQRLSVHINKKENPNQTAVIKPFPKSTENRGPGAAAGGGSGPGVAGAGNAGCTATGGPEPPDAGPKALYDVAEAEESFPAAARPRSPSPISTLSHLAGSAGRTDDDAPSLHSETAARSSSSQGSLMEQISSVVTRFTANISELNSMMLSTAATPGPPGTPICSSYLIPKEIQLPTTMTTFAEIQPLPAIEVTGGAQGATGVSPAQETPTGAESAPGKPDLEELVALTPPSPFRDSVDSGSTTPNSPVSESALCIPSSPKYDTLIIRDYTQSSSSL

smiles_str	EC50
C[C@H]1CN(c2ccc(F)cc2)C(=O)c2cc(CNc3ccccc3)nn21	1.36 µM
O=C1c2cc(CNc3ccc(F)cc3)nn2CCN1c1ccc(F)cc1	3.26 µM
COc1ccc(NCc2cc3n(n2)[C@@H](C)CN(c2ccc(F)cc2)C3=O)cc1	> 30 µM
COc1ccc(N(C)Cc2cc3n(n2)CCN(c2cccc(OC)c2)C3=O)cc1	> 30 µM
COc1ccc(NCc2cc3n(n2)[C@H](C)CN(c2ccc(F)cc2)C3=O)cc1	> 30 µM

###

molecular target: rat mGlu5 (Rattus norvegicus (Rat), UniProt P31424); experiment: mGlu5 Ca2+ flux assay; assay type: cell-based; settings: ratio of rat mGlu5 EC50 or IC50 to rat mGlu3 IC50
# Fold selectivity (mGlu3 vs. mGlu5) listing for each entry below
readout: Fold selectivity (mGlu3 vs. mGlu5)

smiles_str	observed_value
COc1ccc(N(C)Cc2cc3n(n2)CCN(c2cccc(F)c2)C3=O)cc1	>38
C[C@H]1CN(c2ccc(F)cc2)C(=O)c2cc(CNc3ccccc3F)nn21	2.06
Cc1cccnc1NCc1cc2n(n1)CCN(c1ccc(F)cc1)C2=O	>6.3
COc1ccc(N(C)Cc2cc3n(n2)CCN(c2ccc(F)cc2C)C3=O)cc1	>22
COc1ccc(N(C)Cc2cc3n(n2)CCN(c2ccccc2OC)C3=O)cc1	>9.1
COc1cccc(N(C)Cc2cc3n(n2)CCN(c2ccc(F)cc2)C3=O)c1	>29
COc1ccc(N(C)Cc2cc3n(n2)CCN(c2cc(F)cc(OC)c2)C3=O)cc1	>22
COc1cccc(NCc2cc3n(n2)[C@H](C)CN(c2ccc(F)cc2)C3=O)c1	>11
O=C1c2cc(CNc3ccc(OC(F)F)cc3F)nn2CCN1c1ccc(F)cn1	>51
COc1ccc(N(C)Cc2cc3n(n2)CCN(c2cccc(F)c2Cl)C3=O)cc1	>6.2
O=C1c2cc(CNc3c(F)cccc3F)nn2CCN1c1ccc(F)cc1	8.41
